- procedure-details: Determination of the solubility in organic solvents
- Format: physicochemical
- condition-description: solvent THF, 5 ml, added until saturation
Record form. Attribute: Solubility (g/ml) THF. Fill in for each entry.
One number for each entry, in g/mL.

>  <molecule>
c1ccc(N(c2ccc(-c3ccc(N(c4ccccc4)c4ccc5ccccc5c4)cc3)cc2)c2ccc3ccccc3c2)cc1 [Comparative Example7]

>  <units-text>
g/mL

>  <Solubility (g/ml) THF>
0.202

$$$$

Hi there! I need Solubility (g/ml) THF for each item below, if you can.
1. c1ccc(N(c2ccc(-c3ccc(N(c4ccccc4)c4ccc5ccccc5c4)cc3)cc2)c2ccc3ccccc3c2)cc1 [Comparative Example5]
2. Cc1ccc(N(c2ccccc2)c2ccc(-c3ccc(N(c4ccccc4)c4ccc(C)cc4)cc3)cc2)cc1
3. c1ccc(N(c2ccc(-c3ccc(N(c4ccccc4)c4ccc5ccccc5c4)cc3)cc2)c2ccc3ccccc3c2)cc1 [Comparative Example6]
4. c1ccc(N(c2ccc(-c3ccc(N(c4ccccc4)c4cccc5ccccc45)cc3)cc2)c2cccc3ccccc23)cc1 [Example4]

0.235
0.732
0.270
0.028

Please report the measured Solubility (g/ml) THF for c1ccc(N(c2ccc(-c3ccc(N(c4ccccc4)c4cccc5ccccc45)cc3)cc2)c2cccc3ccccc23)cc1 [Comparative Example4]
0.009
